testedTarget: T1, Dimeric Monkey Ang-2FD conjugated to human IgG1 (monkey (Macca fascicularis); human)
T1 construct: also called Monkey Ang-2FD-hFc
protocolDescription: competition ELISA, 16.67 nM Ab, coated hTie-2-mFc
assayReadout: Percent Blocking of Ang-2FD Binding to Tie-2 (%)
Report the figure in % without appending any unit label.

Examples with answers:
binder | observedResult
H2M750N (antibody, V domains shown) VH: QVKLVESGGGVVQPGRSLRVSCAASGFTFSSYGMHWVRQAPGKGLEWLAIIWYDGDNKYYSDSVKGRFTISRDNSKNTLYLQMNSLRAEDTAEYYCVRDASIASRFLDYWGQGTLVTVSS VL: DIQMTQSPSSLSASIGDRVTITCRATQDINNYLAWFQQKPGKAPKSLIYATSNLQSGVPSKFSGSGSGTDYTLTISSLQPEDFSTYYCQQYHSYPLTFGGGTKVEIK | 97.4
H1M724N (antibody, V domains shown) VH: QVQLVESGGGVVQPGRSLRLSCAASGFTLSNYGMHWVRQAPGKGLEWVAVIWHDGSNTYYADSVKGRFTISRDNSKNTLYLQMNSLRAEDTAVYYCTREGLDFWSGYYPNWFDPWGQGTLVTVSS VL: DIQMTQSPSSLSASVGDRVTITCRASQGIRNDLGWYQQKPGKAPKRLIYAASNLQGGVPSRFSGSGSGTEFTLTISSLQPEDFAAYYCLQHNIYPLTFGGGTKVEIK | 95.2

Now examine the next entry.
Can you share its Percent Blocking of Ang-2FD Binding to Tie-2? I mean this binder: H2M742N (antibody, V domains shown) VH: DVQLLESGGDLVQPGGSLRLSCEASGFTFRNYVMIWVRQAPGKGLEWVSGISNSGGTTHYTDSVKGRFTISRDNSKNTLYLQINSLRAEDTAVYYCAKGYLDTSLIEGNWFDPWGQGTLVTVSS VL: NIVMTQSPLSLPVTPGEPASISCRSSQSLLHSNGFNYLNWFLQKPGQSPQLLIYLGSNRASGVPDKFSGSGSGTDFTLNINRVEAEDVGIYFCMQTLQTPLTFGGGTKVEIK
94.1
